Numbers sourced from ChEMBL document CHEMBL6177981.

# System: L929
# protocol.summary: Anti-necroptotic activity in TZ-induced mouse L929 cells assessed as increase in cell viability preincubated with Z-VAD-FMK followed by mTNFalpha stimulation for 4 hrs and measured after compound addition by CellTiter-Lumi luminescent cell viability assay
# Format: functional, cell-based
pEC50: −log10 of the molar value.
measured.attribute: pEC50

// query Could you share what pEC50 was measured for Cn1c(NC(=O)[C@]23CCC(C)(C)C[C@H]2[C@H]2C(=O)C=C4[C@@]5(C)C=C(C#N)C(=O)C(C)(C)[C@@H]5CC[C@@]4(C)[C@]2(C)CC3)nc2ccccc21 , tested on L929?
// result < 5.00

// query Could you share what pEC50 was measured for CC1(C)CC[C@]2(C(=O)Nc3ccc4sncc4c3)CC[C@]3(C)[C@H](C(=O)C=C4[C@@]5(C)C=C(C#N)C(=O)C(C)(C)[C@@H]5CC[C@]43C)[C@@H]2C1 , tested on L929?
// result < 5.00

// query Could you share what pEC50 was measured for CC1(C)CC[C@]2(C(=O)N3CCC(c4ccccc4)C3)CC[C@]3(C)[C@H](C(=O)C=C4[C@@]5(C)C=C(C#N)C(=O)C(C)(C)[C@@H]5CC[C@]43C)[C@@H]2C1 (stereo partly drawn) , tested on L929?
// result < 5.00

###

# Test system: L929
# protocol.summary: Anti-necroptotic activity in TZ-induced mouse L929 cells assessed as increase in cell viability preincubated with Z-VAD-FMK followed by mTNFalpha stimulation for 4 hrs and measured after compound addition by CellTiter-Lumi luminescent cell viability assay
# Format: functional, cell-based
Record form. Attribute: pEC50. Fill in for each entry.
# reply with the number alone; pEC50 is -log10 of concentration in mol/L

// query Please give the measured pEC50 for this molecule: CC1(C)CC[C@]2(C(=O)NC3(c4ccccc4)CC3)CC[C@]3(C)[C@H](C(=O)C=C4[C@@]5(C)C=C(C#N)C(=O)C(C)(C)[C@@H]5CC[C@]43C)[C@@H]2C1
// result 5.32

// query Please give the measured pEC50 for this molecule: Cn1ccc(-c2ccc(NC(=O)[C@]34CCC(C)(C)C[C@H]3[C@H]3C(=O)C=C5[C@@]6(C)C=C(C#N)C(=O)C(C)(C)[C@@H]6CC[C@@]5(C)[C@]3(C)CC4)cc2)n1
// result 5.39

###

# System: HT-29
# protocol.summary: Anti-necroptotic activity in TSZ-induced human HT-29 cells assessed as increase in cell viability preincubated with Z-VAD-FMK and SM164 for 30 mins followed by TNFalpha stimulation for 12 hrs and measured after compound addition by CellTiter-Lumi luminescent cell viability assay
# Type: functional, cell-based
Record form. Attribute: EC50. Fill in for each entry.
I only need the number, in µM, no unit after it.

// query Please give the measured EC50 for this compound: CC1(C)CC[C@]2(C(=O)O)CC[C@]3(C)[C@H](C(=O)C=C4[C@@]5(C)C=C(C(N)=O)C(=O)C(C)(C)[C@@H]5CC[C@]43C)[C@@H]2C1
// result 2.2

// query Please give the measured EC50 for this compound: CC1(C)CC[C@]2(C(=O)Nc3ccc4sccc4c3)CC[C@]3(C)[C@H](C(=O)C=C4[C@@]5(C)C=C(C#N)C(=O)C(C)(C)[C@@H]5CC[C@]43C)[C@@H]2C1
// result 4.85

// query Please give the measured EC50 for this compound: CC1(C)CC[C@]2(C(=O)n3nnc4ccccc43)CC[C@]3(C)[C@H](C(=O)C=C4[C@@]5(C)C=C(C#N)C(=O)C(C)(C)[C@@H]5CC[C@]43C)[C@@H]2C1
// result 9.98

// query Please give the measured EC50 for this compound: CC1(C)CC[C@]2(C(=O)N3Cc4ccccc4C3)CC[C@]3(C)[C@H](C(=O)C=C4[C@@]5(C)C=C(C#N)C(=O)C(C)(C)[C@@H]5CC[C@]43C)[C@@H]2C1
// result 1.65

// query Please give the measured EC50 for this compound: CC1(C)CC[C@]2(C(=O)Nc3nsc4ccccc34)CC[C@]3(C)[C@H](C(=O)C=C4[C@@]5(C)C=C(C#N)C(=O)C(C)(C)[C@@H]5CC[C@]43C)[C@@H]2C1
// result 3.96

// query Please give the measured EC50 for this compound: CC1(C)CC[C@]2(C(=O)N3CCC(c4ccccc4)CC3)CC[C@]3(C)[C@H](C(=O)C=C4[C@@]5(C)C=C(C#N)C(=O)C(C)(C)[C@@H]5CC[C@]43C)[C@@H]2C1
// result 5.8

// query Please give the measured EC50 for this compound: Cn1ccc(-c2ccc(NC(=O)[C@]34CCC(C)(C)C[C@H]3[C@H]3C(=O)C=C5[C@@]6(C)C=C(C#N)C(=O)C(C)(C)[C@@H]6CC[C@@]5(C)[C@]3(C)CC4)cc2)n1
// result 1.38

// query Please give the measured EC50 for this compound: CC1(C)CC[C@]2(C(=O)n3cnc4ccccc43)CC[C@]3(C)[C@H](C(=O)C=C4[C@@]5(C)C=C(C#N)C(=O)C(C)(C)[C@@H]5CC[C@]43C)[C@@H]2C1
// result 2.35

// query Please give the measured EC50 for this compound: CC1(C)CC[C@]2(C(=O)Nc3ccc4ccccc4c3)CC[C@]3(C)[C@H](C(=O)C=C4[C@@]5(C)C=C(C#N)C(=O)C(C)(C)[C@@H]5CC[C@]43C)[C@@H]2C1
// result 9.56

// query Please give the measured EC50 for this compound: CC1(C)CC[C@]2(C(=O)Nc3ccc4oncc4c3)CC[C@]3(C)[C@H](C(=O)C=C4[C@@]5(C)C=C(C#N)C(=O)C(C)(C)[C@@H]5CC[C@]43C)[C@@H]2C1
// result 3.28

// query Please give the measured EC50 for this compound: CC1(C)CC[C@]2(C(=O)Nc3ccc4scnc4c3)CC[C@]3(C)[C@H](C(=O)C=C4[C@@]5(C)C=C(C#N)C(=O)C(C)(C)[C@@H]5CC[C@]43C)[C@@H]2C1
// result 1.38

// query Please give the measured EC50 for this compound: CC1(C)CC[C@]2(C(=O)Nc3ccc4[nH]ccc4c3)CC[C@]3(C)[C@H](C(=O)C=C4[C@@]5(C)C=C(C#N)C(=O)C(C)(C)[C@@H]5CC[C@]43C)[C@@H]2C1
// result 4.08

// query Please give the measured EC50 for this compound: CC1(C)CC[C@]2(C(=O)Nc3ccc4sncc4c3)CC[C@]3(C)[C@H](C(=O)C=C4[C@@]5(C)C=C(C#N)C(=O)C(C)(C)[C@@H]5CC[C@]43C)[C@@H]2C1
// result 2.35
